Reported inhibition values for the following molecules.
# TARGET UNDER TEST: Ubiquitin carboxyl-terminal hydrolase 7 (Homo sapiens) (UniProt Q93009)
# Sequence (Q93009 whole entry, looked up): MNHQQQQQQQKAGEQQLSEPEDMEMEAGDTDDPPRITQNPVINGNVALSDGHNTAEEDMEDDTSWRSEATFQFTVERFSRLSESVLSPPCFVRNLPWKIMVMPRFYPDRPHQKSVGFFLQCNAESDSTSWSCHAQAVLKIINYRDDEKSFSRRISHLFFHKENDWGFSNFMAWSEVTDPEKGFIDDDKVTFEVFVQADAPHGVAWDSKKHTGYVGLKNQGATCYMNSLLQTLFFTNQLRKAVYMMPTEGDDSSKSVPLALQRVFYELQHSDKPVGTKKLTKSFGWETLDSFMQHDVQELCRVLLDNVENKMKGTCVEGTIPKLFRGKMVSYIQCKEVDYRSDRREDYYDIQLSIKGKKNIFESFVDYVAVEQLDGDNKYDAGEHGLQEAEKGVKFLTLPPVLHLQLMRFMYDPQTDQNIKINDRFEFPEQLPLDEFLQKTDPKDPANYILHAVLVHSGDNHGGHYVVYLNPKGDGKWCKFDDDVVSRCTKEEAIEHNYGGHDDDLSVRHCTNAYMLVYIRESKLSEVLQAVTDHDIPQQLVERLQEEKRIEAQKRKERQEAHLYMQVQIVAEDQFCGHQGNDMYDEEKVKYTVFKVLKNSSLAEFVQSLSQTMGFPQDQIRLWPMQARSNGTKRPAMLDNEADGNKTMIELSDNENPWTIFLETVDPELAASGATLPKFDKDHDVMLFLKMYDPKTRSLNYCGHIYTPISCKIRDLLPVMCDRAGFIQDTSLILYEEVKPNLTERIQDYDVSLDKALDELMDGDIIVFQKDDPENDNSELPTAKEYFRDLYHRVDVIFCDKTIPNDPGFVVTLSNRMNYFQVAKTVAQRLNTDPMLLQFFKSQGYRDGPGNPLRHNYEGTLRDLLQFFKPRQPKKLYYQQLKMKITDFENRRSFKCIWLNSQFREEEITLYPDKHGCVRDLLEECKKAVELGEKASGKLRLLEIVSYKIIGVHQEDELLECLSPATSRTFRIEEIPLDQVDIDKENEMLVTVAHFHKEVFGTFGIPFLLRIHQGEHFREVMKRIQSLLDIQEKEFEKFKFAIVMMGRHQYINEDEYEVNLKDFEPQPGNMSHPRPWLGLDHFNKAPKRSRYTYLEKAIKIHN
# ASSAY INFO: blocks human USP7 ubiquitin-rhodamine cleavage (AID 1645854)
# STATED CONDITIONS: purified USP7, Ub-rhodamine cleavage fluorescence; at 20 µM; hits give high values
In all, about 47,000 compounds went through this assay and about 140 (0.3%) were called active. The sample as a whole holds a higher share of actives than the screen did.

{"MOLECULE": "COc1ccc(C(=O)Nc2ccccc2N2CCOCC2)cc1S(=O)(=O)N(C)Cc1ccccc1", "READOUT UNIT": "%", "inhibition": 2.61}
{"MOLECULE": "C=C1CCC2[C@](C)(CCC[C@]2(C)C(=O)OC)[C@H]1CCc1ccoc1C[N+](C)(C)Cc1ccccc1 (stereo partly specified)", "READOUT UNIT": "%", "inhibition": 19.4}
{"MOLECULE": "CCN1CCN(Cc2nc3nc(C)cc(N4CCCC4)n3n2)CC1", "READOUT UNIT": "%", "inhibition": 0.109}
{"MOLECULE": "C=C1CCC2[C@](C)(CCC[C@]2(C)C(=O)OC)[C@H]1CCc1ccoc1CNCC(=O)O (stereo partly specified)", "READOUT UNIT": "%", "inhibition": 1.95}
{"MOLECULE": "COCCn1cnc2c1c(=O)n(CC(=O)Nc1c(C)cc(C)cc1C)c(=O)n2Cc1ccccc1", "READOUT UNIT": "%", "inhibition": 0.0199}
{"MOLECULE": "O=C1[C@H]2Cc3c([nH]c4ccccc34)CN2C(=O)CN1CC(O)c1ccccc1 (stereo partly specified)", "READOUT UNIT": "%", "inhibition": -145}
{"MOLECULE": "O=C(CCc1nc(-c2cccnc2)no1)Nc1cc(Cl)ccc1O", "READOUT UNIT": "%", "inhibition": -16.2}
{"MOLECULE": "Cc1cc(O)c(=O)cc2c1C[C@H]1CC(C)(C)/C=C/C[C@@]3(C)Oc4cc(=O)c(O)cc(C)c4C[C@@H]3C[C@H](O)[C@]1(C)O2", "READOUT UNIT": "%", "inhibition": 32.8}
{"MOLECULE": "CCc1cnc(N2CCC3(CCN(C(=O)c4cccnc4)C3)CC2)nc1", "READOUT UNIT": "%", "inhibition": 1.31}
{"MOLECULE": "COc1ccc(-c2nc3ccccc3c3nnc(SCC(N)=O)n23)cc1", "READOUT UNIT": "%", "inhibition": 6.48}
{"MOLECULE": "CCCN1CCN(Cc2nc3nc(C)cc(N4CCCC4)n3n2)CC1", "READOUT UNIT": "%", "inhibition": 0.57}
{"MOLECULE": "CC(C)Cc1cc(-c2nn3c(-c4ccccc4Cl)nnc3s2)n[nH]1", "READOUT UNIT": "%", "inhibition": 7.86}
{"MOLECULE": "CC(Nc1nnc(Cc2ccccc2)c(=O)[nH]1)c1ccccc1 (stereo unspecified)", "READOUT UNIT": "%", "inhibition": 19.7}
{"MOLECULE": "CC(C)NC(=O)N1CC[C@H]2COC(=O)N(Cc3ccccc3)[C@@H]2C1", "READOUT UNIT": "%", "inhibition": 3.45}
{"MOLECULE": "Cc1cnc(C(=O)N2CC[C@@H]3[C@H]2CCCC(=O)N3Cc2ccccc2C(F)(F)F)cn1", "READOUT UNIT": "%", "inhibition": -3.69}
{"MOLECULE": "Cc1nn(CC(=O)c2cc(C)n(-c3ccc4c(c3)OCO4)c2C)c(C)c1[N+](=O)[O-]", "READOUT UNIT": "%", "inhibition": -2.39}
{"MOLECULE": "Cc1cnn(CC(=O)N2CCCCCC2c2ccncc2)c1 (stereo unspecified)", "READOUT UNIT": "%", "inhibition": -1.92}
{"MOLECULE": "C=C1CCC2[C@](C)(CCC[C@]2(C)C(=O)OC)[C@H]1CCc1ccoc1/C=C/C(=O)O (stereo partly specified)", "READOUT UNIT": "%", "inhibition": 37.2}
{"MOLECULE": "CN(C(=O)COc1ncnc2c1cnn2-c1ccccc1)C1CCCCC1", "READOUT UNIT": "%", "inhibition": 1.52}
{"MOLECULE": "COc1cccc(-n2nnc(-c3nnc(-c4ccccc4)o3)c2C)c1", "READOUT UNIT": "%", "inhibition": -29.9}
{"MOLECULE": "O=C1CC(CNS(=O)(=O)c2cccc(Cl)c2)CN1c1ccccc1 (stereo unspecified)", "READOUT UNIT": "%", "inhibition": -3.38}
{"MOLECULE": "Cc1ccc(NS(=O)(=O)c2cc(-c3[nH]ncc3C(=O)N3CCCC3)oc2C)cc1F", "READOUT UNIT": "%", "inhibition": -40.8}
{"MOLECULE": "Cc1cccc(NC(=O)CCc2nnc3ccc(NCc4ccc5c(c4)OCO5)nn23)n1", "READOUT UNIT": "%", "inhibition": -2.6}
{"MOLECULE": "O=C(Nc1ccc(F)cc1F)c1csc2c1CCCCC2", "READOUT UNIT": "%", "inhibition": 3.29}
{"MOLECULE": "Cc1cccc(CNC(=O)c2ccc3c(c2)NC(=O)C2CCC(=O)N32)c1 (stereo unspecified)", "READOUT UNIT": "%", "inhibition": 1.1}
{"MOLECULE": "Cc1c(S(=O)(=O)Nc2ccccc2F)cc(C(=O)N2CCCCC2)n1C", "READOUT UNIT": "%", "inhibition": 5.73}

Data provenance: PubChem BioAssay AID1645854
